# credit: the supplement of paper PMC10567573

B1: ZNF511 (parent)
chain: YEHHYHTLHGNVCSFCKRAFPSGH

# Variants of: B1
# measurementDescription: protein stability index of a GFP-peptide fusion (GPS, HEK-293T) (PSI 1-6); higher = more stable;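 note: lentivirally expressed fusions sorted by FACS into six bins by GFP to DsRed ratio, PSI derived from sequencing read proportions per bin multiplied by bin number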
# setupConditions: c terminus: a fixed tail appended
Provide the recorded protein stability index for the entries that follow.

A19G
1.96

Hi team, please reply with protein stability index for each item in this list.
1. S22R
2. G23Y

Response given:
1: 2.03; 2: 1.97
